- assayed_system: T1, Abeta peptide (40-amino acid Abeta peptide, SEQ ID NO: 1), biotinylated (human, N-terminal biotin or C-terminal lysine-linked biotin, separated from the peptide by a PEG6 linker)
- T1 construct: Synthesized by Genscript; also called amyloid beta; test peptide
- T1 sequence (peptide, as listed by the source): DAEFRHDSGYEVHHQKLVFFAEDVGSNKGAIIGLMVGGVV
- measurement_description: BLI (Octet HTX), biotinylated Abeta on streptavidin sensors, 1 uM VHH, 1:1 fit
The entries below are paired with their reported kon.
Numeric only. Scale: M⁻¹ s⁻¹

Recorded results for 5 binders are shown here.
vhhLib05-83 (VHH, The entry as printed includes a doubled TLVTVSS-like stretch and HHHHHH) VHH: EVQLLESGGGLVQPGGSLRLSCAASGFTFSNYAMSWVRQAPGKQREWVSAISGSGGSTYYADSVKGRFTISRDNSKNTLYLQMNSLRAEDTAVYYCARLFLQQADGLYYYYAFDPWGQGTPVTVSS    3830
vhhLib05-14 (VHH, The entry as printed includes a doubled TLVTVSS and HHHHHH) VHH: EVQLLESGGGLVQPGGSLRLSCAASGFTFSSYAMSWVRQAPGKQREWVSAISGSGGSTYYADSVKGRFTISRDNSKNTLYLQMNSLRAEDTAVYYCARLSIVDVVTVFDVWGQGTLVTVSS    11100
vhhLib02-37 (VHH, The entry as printed includes HHHHHH; also called vhbLib02-37) VHH: EVQLVESGGGLVQPGGSLRLSCAASGFTFSDYVMSWYRQAPGKQRELVSAIISGEDTYYADSVKGRFTISRDNSKNTLYLQMNSLRAEDTAVYYCARYVHKSTWYYFDHWGQGTLVTVSS    3210
vhhLib01-3 (VHH, The entry as printed includes HHHHHH) VHH: QVQLVESGGGLVQPGGSLRLSCAASGSIFSFNLMGWYRQAPGKQRELVAAINSGGSTNYADSVKGRFTISRDNAKNTVYLQMNSLKPEDTAVYYCARDYTVYVSYYDGRFDYWGQGTLVTVSS    14800
vhhLib05-25 (VHH, The entry as printed includes a doubled TLVTVSS and HHHHHH) VHH: EVQLLESGGGLVQPGGSLRLSCAASGFTFSSYAMSWVRQAPGKQREWVSAISGSGGSTYYADSVKGRFTISRDNSKNTLYLQMNSLRAEDTAVYYCARHRQADGITYFDIWGQGTLVTVSS    14100

Return kon for the following binder: vhhLib01-75 (VHH, The entry as printed includes HHHHHH) VHH: QVQLVESGGGLVQPGGSLRLSCAASGSIFSSNRMGWYRQAPGKQRELVAAIFSGGHTNYADSVKGRFTISRDNAKNTVYLQMNSLKPEDTAVYYCARPVDWSGPFDIWGQGTLVTVSS
17500

Return kon for the following binder: vhhLib05-8 (VHH, The entry as printed includes a doubled TLVTVSS and HHHHHH; also called 13BHK) VHH: EVQLLESGGGLVQPGGSLRLSCAASGFTFSSYAMSWVRQAPGKQREWVSAISGSGGRTYYADSVKGRFTISRDNSKNTLYLQMNSLRAEDTAVYYCARHSIPVDGIVAFDHWGQGTLVTVSS
10600
